Below, each entry is listed with its recorded Wild oats plant response rating.
Test system: wild oat
Protocol details: Test B pre/postemergence wild oat
Format: in vivo, Avena fatua
Study conditions: Postemergence, Rate 125 g/ha; scale 0 to 10, 0 is no effect, 10 is complete control
Lab note: write the figure by itself, no unit.

Worked cases, Wild oats plant response rating given:
[
  {
    "Molecule": "CC(=O)C(C)n1c(=O)on(C(=O)N(c2ccc(F)cc2F)C(C)C)c1=O (stereo not shown) [Compound 517]",
    "Tested system": "wild oat",
    "Wild oats plant response rating": 0
  },
  {
    "Molecule": "CC(Cl)=CCn1c(=O)on(C(=O)N(c2ccc(F)cc2F)C(C)C)c1=O [Compound 514]",
    "Tested system": "wild oat",
    "Wild oats plant response rating": 0
  },
  {
    "Molecule": "CC(C)N(C(=O)n1oc(=O)n(CC2=NCCO2)c1=O)c1ccccc1 [Compound 495]",
    "Tested system": "wild oat",
    "Wild oats plant response rating": 0
  }
]

[in] // lookup Wild oats plant response rating for CC(C)N(C(=O)n1oc(=O)n(CCC(F)(F)F)c1=O)c1ccc(F)cc1F [Compound 525]
[out] 2

###

Test system: surinam grass
Protocol details: Test B pre/postemergence surinam grass
Format: in vivo, Brachiaria decumbens
Study conditions: Preemergence, Rate 500 g/ha; scale of 0 to 10 where 0 is no effect and 10 is complete control
Parameter measured: Plant response rating, B. signalgrass
Lab note: write the figure by itself, no unit.

Worked cases, Plant response rating, B. signalgrass given:
[
  {
    "Compound": "CC(C)N(C(=O)n1oc(=O)n(-c2cccnc2)c1=O)c1ccc(F)cc1 [Compound 234]",
    "Parameter measured": "Plant response rating, B. signalgrass",
    "Recorded number": 0
  },
  {
    "Compound": "CC(C)N(C(=O)n1oc(=O)n(CC(=O)C2CC2)c1=O)c1ccc(Cl)cc1 [Compound 639]",
    "Parameter measured": "Plant response rating, B. signalgrass",
    "Recorded number": 7
  },
  {
    "Compound": "C#CC(C=C(C)C)n1c(=O)on(C(=O)N(c2ccccc2)C(C)C)c1=O (centres unmarked) [Compound 652]",
    "Parameter measured": "Plant response rating, B. signalgrass",
    "Recorded number": 2
  },
  {
    "Compound": "COC(=O)Cn1c(=O)on(C(=O)N(c2ccc(F)cc2)C(C)C)c1=O [Compound 215]",
    "Parameter measured": "Plant response rating, B. signalgrass",
    "Recorded number": 2
  }
]

[in] // lookup Plant response rating, B. signalgrass for CC(C)N(C(=O)n1oc(=O)n(Cc2ccco2)c1=O)c1ccc(Cl)cc1 [Compound 206]
[out] 0

[in] # repeat for CCCCn1c(=O)on(C(=O)N(c2ccc(F)cc2F)C(C)C)c1=O [Compound 635]
[out] 9

[in] # repeat for CCc1ccc(N(C(=O)n2oc(=O)n(-c3ccccc3C)c2=O)C(C)C)cc1 [Compound 230]
[out] 0

[in] # repeat for COP(=O)(CCn1c(=O)on(C(=O)N(c2ccccc2)C(C)C)c1=O)OC [Compound 697]
[out] 5

###

Below, each entry is listed with its recorded Crabgrass plant response rating.
Test system: crabgrass
Protocol details: Test B pre/postemergence crabgrass
Type: in vivo, Digitaria sanguinalis
Study conditions: Rate 125 g/ha; Postemergence; scale 0 to 10, 0 no effect, 10 complete control
Method: […] At the same time, these crop and weed species were also treated with postemergence applications of test chemicals formulated in the same manner. […] Treated plants and controls were maintained in a greenhouse for twelve to sixteen days, after which all species were compared to controls and visually evaluated. […]
Lab note: write the figure by itself, no unit.

[in] Record lookup: for crabgrass, what Crabgrass plant response rating belongs to "COc1ccc(-n2c(=O)on(C(=O)N(c3ccc(F)cc3F)C(C)C)c2=O)c(OC)c1" ?
[out] 2

[in] # repeat for "CC(C)N(C(=O)n1oc(=O)n(Cc2ccccc2)c1=O)c1ccc(F)cc1"
[out] 2

[in] # repeat for "CCN(CC)C(=O)n1oc(=O)n(-c2cc(Cl)cc(Cl)c2)c1=O"
[out] 0

[in] # repeat for "Cc1ccccc1-n1c(=O)on(C(=O)N(c2ccc(F)c(F)c2)C(C)C)c1=O"
[out] 1

###

Tested on: surinam grass
Protocol details: Test B pre/postemergence surinam grass
Assay type: in vivo, Brachiaria decumbens
Study conditions: Preemergence, Rate 62 g/ha; scale 0 to 10 (0 no effect, 10 complete control)
Parameter measured: B. signalgrass plant response rating
Lab note: write the figure by itself, no unit.

[
  {
    "Compound": "CC(C)N(C(=O)n1oc(=O)n(CC(=O)C(F)(F)F)c1=O)c1ccc(F)cc1F",
    "B. signalgrass plant response rating": 0
  },
  {
    "Compound": "COCCn1c(=O)on(C(=O)N(c2ccccc2)C(C)C)c1=O",
    "B. signalgrass plant response rating": 6
  },
  {
    "Compound": "CCC=CCn1c(=O)on(C(=O)N(c2ccc(Cl)cc2)C(C)C)c1=O",
    "B. signalgrass plant response rating": 4
  },
  {
    "Compound": "CC(C)N(C(=O)n1oc(=O)n(Cc2cccs2)c1=O)c1ccc(F)cc1F",
    "B. signalgrass plant response rating": 0
  },
  {
    "Compound": "CCN(Cc1ccccc1)C(=O)n1oc(=O)n(-c2c(C)cccc2C)c1=O",
    "B. signalgrass plant response rating": 0
  }
]

[in] Record lookup: for surinam grass, what B. signalgrass plant response rating belongs to CC(C)N(C(=O)n1oc(=O)n(C(C)C(=O)c2ccccc2)c1=O)c1ccccc1 (stereo not shown) ?
[out] 0

[in] # repeat for "Cc1noc(C)c1Cn1c(=O)on(C(=O)N(c2ccccc2)C(C)C)c1=O"
[out] 0

[in] # repeat for "CC(C)N(C(=O)n1oc(=O)n(CCCCF)c1=O)c1ccc(Cl)cc1"
[out] 4

[in] # repeat for "CC(C)N(C(=O)n1oc(=O)n(-c2cnn(C)c2Cl)c1=O)c1ccc(F)cc1"
[out] 0

[in] # repeat for "CC(C)N(C(=O)n1oc(=O)n(CCC2OCCO2)c1=O)c1ccccc1"
[out] 4

###

Tested on: morningglory
Protocol details: Test B pre/postemergence morningglory
Format: in vivo, Ipomoea hederacea
Study conditions: Preemergence, Rate 125 g/ha; scale of 0 to 10 where 0 is no effect and 10 is complete control
Parameter measured: Plant response rating, Morningglory

[in] // lookup Plant response rating, Morningglory for CC(C)N(C(=O)n1oc(=O)n(C(C)C(=O)N(C)C)c1=O)c1ccc(F)cc1 (stereo not drawn)
[out] 0

[in] # repeat for C=CC(CC)n1c(=O)on(C(=O)N(c2ccccc2)C(C)C)c1=O (stereo not drawn)
[out] 0

[in] # repeat for "CC(C)N(C(=O)n1oc(=O)n(C(C)C)c1=O)c1ccc(Br)cc1"
[out] 0

[in] # repeat for "CC(C)N(C(=O)n1oc(=O)n(CC#N)c1=O)c1ccccc1"
[out] 0

[in] # repeat for "CC(C)N(C(=O)n1oc(=O)n(C(CF)CF)c1=O)c1ccc(Cl)cc1"
[out] 0

[in] # repeat for "CC(C)N(C(=O)n1oc(=O)n(CCS(C)(=O)=O)c1=O)c1ccc(F)cc1"
[out] 0

[in] # repeat for CC(C)N(C(=O)n1oc(=O)n(C(C)C2=NOCC2)c1=O)c1ccc(F)cc1 (racemic)
[out] 2

[in] # repeat for "CCOC(=O)C=C(Cn1c(=O)on(C(=O)N(c2ccc(F)cc2)C(C)C)c1=O)OCC"
[out] 0

[in] # repeat for "CC(C)N(C(=O)n1oc(=O)n(Cc2nnc(-c3ccccc3)o2)c1=O)c1ccccc1"
[out] 0

###

Test system: wheat
Protocol details: Test B pre/postemergence wheat
Type: in vivo, Triticum aestivum
Study conditions: Preemergence, Rate 62 g/ha; scale of 0 to 10 where 0 is no effect and 10 is complete control
Below, each entry is listed with its recorded Wheat plant response rating.
Lab note: write the figure by itself, no unit.

[
  {
    "Smi": "Cc1ccccc1N(C(=O)n1oc(=O)n(-c2ccccc2C)c1=O)C(C)C",
    "Recorded number": 0
  }
]

[in] // lookup Wheat plant response rating for "CC(C)N(C(=O)n1oc(=O)n(N(C)C)c1=O)c1ccc(F)cc1"
[out] 5

[in] # repeat for "COCn1c(=O)on(C(=O)N(c2ccc(F)cc2)C(C)C)c1=O"
[out] 2

[in] # repeat for "CSCCn1c(=O)on(C(=O)N(c2ccc(F)cc2)C(C)C)c1=O"
[out] 0

[in] # repeat for "C=CCn1c(=O)on(C(=O)N(c2ccc(F)cc2)C2CCCCCC2)c1=O"
[out] 0

###

Tested on: bedstraw
Protocol details: Test B pre/postemergence bedstraw
Format: in vivo, Galium aparine
Study conditions: Preemergence, Rate 250 g/ha
Parameter measured: Bedstraw plant response rating (0 to 10 scale)
Lab note: write the figure by itself, no unit.

Worked cases, Bedstraw plant response rating (0 to 10 scale) given:
[
  {
    "Compound": "Cc1noc(C)c1Cn1c(=O)on(C(=O)N(c2ccccc2)C(C)C)c1=O [Compound 569]",
    "Recorded number": 0
  },
  {
    "Compound": "CC(C)N(C(=O)n1oc(=O)n(CC(=O)C(F)(F)F)c1=O)c1ccc(F)cc1F [Compound 598]",
    "Recorded number": 0
  },
  {
    "Compound": "CC(C)N(C(=O)n1oc(=O)n(CCC(F)(F)F)c1=O)c1ccccc1 [Compound 584]",
    "Recorded number": 9
  }
]

[in] // lookup Bedstraw plant response rating (0 to 10 scale) for CC(C)N(C(=O)n1oc(=O)n(CCC(F)(F)F)c1=O)c1ccc(F)cc1F [Compound 525]
[out] 0

[in] # repeat for CCC=CCn1c(=O)on(C(=O)N(c2ccc(Cl)cc2)C(C)C)c1=O [Compound 552]
[out] 0
